Reference source for all entries: PubChem BioAssay (NCATS)

- ASSAY_METHOD_TEXT: qHTS of pediatric cancer cell lines to identify multiple opportunities for drug repurposing: Primary screen for LAN-5 cells (AID 1347100)
- PROTOCOL_CONDITIONS: LAN-5 neuroblastoma viability, CellTiter-Glo luminescence, 48 h; series mostly up to 46 µM
Records with an inconclusive call do not appear. Active and inactive are the calls of the source. Calls come from the whole dose curve; as a rule, active = well fitted cell-killing curve with a large enough effect; inconclusive = small, poorly fitted or top-dose-only effect; inactive = no such curve, though single readings can be large or run the other way.
# output must be one of 1.0 = active, 0.0 = inactive

Sample answers from the record:
In [3]: df
Out[3]:
                              line_notation  cat
0  CC(C)(C)c1nc(-c2cccc(NS(=O)(=O)c3c(F)cccc3F)c2F)c(-c2ccnc(N)n2)s1  0.0
1  C#C[C@]1(O)CC[C@H]2[C@H]3CCc4cc(OC)ccc4[C@H]3CC[C@@]21C  0.0
2  C=CC[N+]1([C@H]2C[C@H]3[C@@H]4CC[C@H]5C[C@H](O)[C@@H](N6CCOCC6)C[C@]5(C)[C@@H]4CC[C@]3(C)[C@H]2OC(C)=O)CCCC1  0.0

query: Please indicate how the test categorized `COc1ccc(-c2ccc3ncc4c(c3c2)n(-c2ccc(N3CCNCC3)c(C(F)(F)F)c2)c(=O)n4C)cn1` .
result: 1.0

query: Short answer needed: outcome of this test for `CC(=O)N1CCN(c2ccc(OCc3nn(C)c(C)c3-c3cccc4c(CCCOc5cc(C)c(Cl)c(C)c5)c(C(=O)O)n(Cc5cccnc5)c34)cc2)CC1` ?
result: 1.0

query: What did this assay record as the result for `C[C@H]1O[C@@H](n2cc(F)c(=O)[nH]c2=O)[C@H](O)[C@H]1O` ?
result: 1.0

====

- ASSAY_METHOD_TEXT: qHTS of pediatric cancer cell lines to identify multiple opportunities for drug repurposing: Primary screen for DAOY cells (AID 1347090); note: nearly all actives have a fitted effect of over 55% in size
- PROTOCOL_CONDITIONS: DAOY medulloblastoma viability, CellTiter-Glo luminescence, 48 h; series mostly up to 46 µM
Inconclusive results are not listed. The source made the active and inactive calls. Calls come from the whole dose curve; as a rule, active = well fitted cell-killing curve with a large enough effect; inconclusive = small, poorly fitted or top-dose-only effect; inactive = flat fitted curve, though single readings scatter.
Returns: one label drawn from t = active, f = inactive

MOLECULE	CAT
CCN1CCN(c2ccc(Nc3cc(N(C)C(=O)Nc4c(Cl)c(OC)cc(OC)c4Cl)ncn3)cc2)CC1	f
CC(C)n1c(C=C[C@H](O)C[C@H](O)CC(=O)O)c(-c2ccc(F)cc2)c2ccccc21	t
N=C1SC(=Cc2ccc(-c3ccc4c(c3)C(=O)NC4=O)o2)C(=O)N1c1ccc(Br)cc1	f

query: State the result this test recorded for `Cc1ccc(S(=O)(=O)OCC(=O)Nc2ccc(C(=O)O)c(O)c2)cc1` .
result: f

query: Status in this test for `CN(C)CC[C@H](CSc1ccccc1)Nc1ccc(S(=O)(=O)NC(=O)c2ccc(N3CCN(Cc4ccccc4-c4ccc(Cl)cc4)CC3)cc2)cc1[N+](=O)[O-]` ?
result: t

query: Called result for `CNc1nc(Nc2ccc(C(=O)N3CCOCC3)cc2OC)ncc1Cl`
result: f

====

- ASSAY_METHOD_TEXT: P-glycoprotein substrates identified in KB-8-5-11 adenocarcinoma cell line, qHTS therapeutic library screen (AID 1346987); note: nearly all actives have a fitted effect of over 65% in size
- PROTOCOL_CONDITIONS: KB-8-5-11 (P-gp overexpressing) viability, CellTiter-Glo, 72 h; series mostly up to 44.5 µM
Inconclusive results are not listed. Activity calls are given as the source filed them. Calls come from the whole dose curve; as a rule, active = well fitted inhibition curve with a large enough effect; inconclusive = small, poorly fitted or top-dose-only effect; inactive = flat fitted curve, though single readings scatter.
The categories you may choose from are active, inactive

Take a look at these entries with their results.
MOLECULE	CAT
C=CC[N+]1([C@H]2C[C@H]3[C@@H]4CC[C@H]5C[C@H](O)[C@@H](N6CCOCC6)C[C@]5(C)[C@@H]4CC[C@]3(C)[C@H]2OC(C)=O)CCCC1	inactive
CCCCC[C@H](O)C=C[C@H]1[C@H](O)CC(=O)[C@H]1CCCCCCC(=O)O	inactive
NCC1CCC(C(=O)O)CC1 (stereo not given)	inactive
CC[C@H](C)C(=O)O[C@H]1C[C@H](O)C=C2C=C[C@H](C)[C@H](CC[C@@H](O)C[C@@H](O)CC(=O)O)[C@H]21	inactive

query: Per the assay record, what outcome was assigned to `Cc1ccccc1-n1c(Cn2nc(-c3cccc(O)c3)c3c(N)ncnc32)nc2cccc(C)c2c1=O` ?
result: inactive

query: State the result this test recorded for `COc1ccc(CCC(=O)Nc2nc3ccc(Cl)cc3s2)cc1OC` .
result: inactive

query: Hello, I am checking results. What call was entered for `C=CC(=O)Nc1cccc(Sc2nc(Nc3ccc(N4CCN(C)CC4)cc3)ncc2Cl)c1` ?
result: active

query: # outcome recorded in this test, key = `CCC(=C(CC)c1ccc(O)cc1)c1ccc(O)cc1`
result: inactive

query: Query: recorded result category for O=C(O)C1=NC(C(=O)O)CC(C=CN2c3cc(O)c(OC4OC(CO)C(O)C(O)C4O)cc3CC2C(=O)O)=C1 (stereo not given) in this test
result: inactive

query: Assay result, entry `OCCn1cc(-c2ccc3c(c2)CCC3=NO)c(-c2ccncc2)n1` — outcome?
result: inactive

query: Call for entry `CC(C)(F)C[C@H](N[C@@H](c1ccc(-c2ccc(S(C)(=O)=O)cc2)cc1)C(F)(F)F)C(=O)NC1(C#N)CC1` :
result: inactive

query: Hi team, can someone confirm the assay call for `CC[C@H]1OC(=O)[C@H](C)[C@@H](O[C@H]2C[C@@](C)(OC)[C@@H](O)[C@H](C)O2)[C@H](C)[C@@H](O[C@@H]2O[C@H](C)C[C@H](N(C)C)[C@H]2O)[C@](C)(O)C[C@H](C)C(=NOCOCCOC)[C@H](C)[C@@H](O)[C@]1(C)O` ?
result: inactive

query: How did this test come out for Cc1cc(C(C)Nc2ccccc2)c2nc(N3CCOCC3)cc(=O)n2c1 (stereo not given) ?
result: inactive

query: I'd appreciate the recorded outcome for `CCNC(=O)c1noc(-c2cc(C(C)C)c(O)cc2O)c1-c1ccc(CN2CCOCC2)cc1` from this test.
result: active

query: Which result was noted for this molecule in the test: `CC(C)n1c(C=C[C@H](O)C[C@H](O)CC(=O)O)c(-c2ccc(F)cc2)c2ccccc21`
result: active

query: Per the records of this test, what outcome belongs to `N=C1SC(=Cc2ccc(-c3ccc4c(c3)C(=O)NC4=O)o2)C(=O)N1c1ccc(Br)cc1` ?
result: inactive

query: Name the outcome recorded for `CC(C)(C)c1[nH]cnc1C=c1[nH]c(=O)c(=Cc2ccccc2)[nH]c1=O` in the assay.
result: active

query: Fill in: this test's call for `CCCCCCCCCCCCCCCC(=O)O[C@H]1[C@@H](O)[C@@H](O)[C@@H]([C@H](NC(=O)[C@@H]2C[C@@H](CCC)CN2C)[C@H](C)Cl)O[C@@H]1SC` is ___
result: inactive

query: Dear colleague, could you share the recorded outcome for `O=C(CO)N1CCC(c2[nH]nc(-c3ccc(Cl)cc3)c2-c2ccncn2)CC1` when you have a moment?
result: inactive
